test: Phase I study CXR1002-001: plasma pharmacokinetics (LC-MS/MS); format: in vivo, human; conditions: human, plasma, po, 1200 mg, Patient 038, 1200 mg weekly oral dose, Time 340 hr; read-out: Concentration (plasma level)
quantity measured: concentration at 340 h (µM)
Answer format: numeric, µM implied, no suffix.

Look up concentration at 340 h for this compound: O=C(O)C(F)(F)C(F)(F)C(F)(F)C(F)(F)C(F)(F)C(F)(F)C(F)(F)F [CXR1002]
672

----------
test: Phase I study CXR1002-001: plasma pharmacokinetics (LC-MS/MS); format: in vivo, human; settings: human, plasma, po, 1200 mg, Patient 038, 1200 mg weekly oral dose, Time 170 hr; read-out: Concentration (plasma level)
quantity measured: concentration at 170 h (µM)
Answer format: numeric, µM implied, no suffix.

Look up concentration at 170 h for this molecule: O=C(O)C(F)(F)C(F)(F)C(F)(F)C(F)(F)C(F)(F)C(F)(F)C(F)(F)F
502

----------
assay: Phase I study CXR1002-001: plasma pharmacokinetics (LC-MS/MS); assay type: in vivo, human; details: human, plasma, oral, 750 mg, Patient 028, 750 mg, person, plasma, 4 hr; read-out: Concentration
quantity measured: concentration at 4 h
Write the quantity with the unit trailing the number.

Look up concentration at 4 h for this compound: O=C(O)C(F)(F)C(F)(F)C(F)(F)C(F)(F)C(F)(F)C(F)(F)C(F)(F)F [CXR1002]
160 µM

----------
test: Phase I study CXR1002-001: plasma pharmacokinetics (LC-MS/MS); type: in vivo, human; details: human, plasma, oral, 600 mg, Patient 021, 600 mg, person, plasma, 506 hr; read-out: Concentration
quantity measured: concentration at 506 h (µM)
Answer format: numeric, µM implied, no suffix.

Look up concentration at 506 h for this compound: O=C(O)C(F)(F)C(F)(F)C(F)(F)C(F)(F)C(F)(F)C(F)(F)C(F)(F)F
734

----------
Experiment: Phase I study CXR1002-001: plasma pharmacokinetics (LC-MS/MS)
Assay type: in vivo, human
Conditions: human, plasma, oral, 1200 mg, Patient 035, 1200 mg, person, plasma, 168 hr (Day 8); read-out: Concentration
Description: PK samples, PD (fasting) samples, blood glucose, and blood triglyceride samples, were taken over a 6-week period. Dose limiting toxicity (DLT) will be based on the toxicity assessments over the first 3-week period of the repeat dosing schedule. […]
quantity measured: concentration at 168 h

Look up concentration at 168 h for this compound: O=C(O)C(F)(F)C(F)(F)C(F)(F)C(F)(F)C(F)(F)C(F)(F)C(F)(F)F
254 µM

----------
system: HPAFII; experiment: ATP depletion cytotoxicity assay 48 hr; format: cell-based, human; conditions: Homo sapiens, HPAF-II, 48 h, read-out: IC50 1-4 (independent replicates), ATP depletion, 48 hrs, HPAFII
quantity measured: IC50

Look up IC50 for this compound: O=C(O)C(F)(F)C(F)(F)C(F)(F)C(F)(F)C(F)(F)C(F)(F)C(F)(F)F [CXR1002]
> 1000 µM

----------
Assay: Phase I study CXR1002-001: plasma pharmacokinetics (LC-MS/MS)
Type: in vivo, human
Settings: human, plasma, oral, 1200 mg, Patient 033, 1200 mg, person, plasma, 172 hr; read-out: Concentration
Source text: PK samples, PD (fasting) samples, blood glucose, and blood triglyceride samples, were taken over a 6-week period. Dose limiting toxicity (DLT) will be based on the toxicity assessments over the first 3-week period of the repeat dosing schedule. […]
quantity measured: concentration at 172 hr (µM)
Answer format: numeric, µM implied, no suffix.

Look up concentration at 172 hr for this compound: O=C(O)C(F)(F)C(F)(F)C(F)(F)C(F)(F)C(F)(F)C(F)(F)C(F)(F)F [CXR1002]
637
